Tested on: upland rice (Oryza sp., var. Tebonnet, RICE)
assay-overview: Post-emerge test, crop safety
Type: in vivo
test-settings: 63 g ai/ha; post-emerge; 14 days after application; rating scale 0-100
recorded-endpoint: Post-emerge Herbicidal Activity RICE (crop damage rating)
Give bare numbers.

Here is how some molecules turned out for Post-emerge Herbicidal Activity RICE (crop damage rating).
1. Cn1c(C(F)(F)F)cc(=O)n(-c2ccc(Cl)cc2/C=C/c2ccc3ccccc3c2)c1=O; 0
2. COc1c(Cl)cc(F)c(-n2c(=O)cc(C(F)(F)F)n(C)c2=O)c1NNC(=O)Oc1ccccc1; 50
3. CCOC(=O)C(Cl)Cc1c(OC)c(Cl)cc(F)c1-n1nc(C(F)(F)F)n(C)c1=O (centres unmarked); 0
4. CCOc1c(Cl)cc(F)c(-n2c(=O)cc(C(F)(F)F)n(C)c2=O)c1Cl; 0
5. COc1c(Cl)cc(F)c(-n2c(=O)cc(C(F)(F)F)n(C)c2=O)c1Sc1ccc2ccccc2c1; 0

Please report Post-emerge Herbicidal Activity RICE (crop damage rating) for every entry that follows.
1. COc1cc(Cl)cc(Cl)c1-n1c(=O)cc(C(F)(F)F)n(C)c1=O
2. COc1c(Cl)cc(F)c(-n2c(=O)cc(C(F)(F)F)n(C)c2=O)c1NN=C(C(F)(F)F)C(F)(F)F
3. CCOC(=O)C(Cl)Cc1c(OC)c(Cl)cc(F)c1-c1nn(C)c(C(F)(F)F)c1Cl (centres unmarked)

RESULT:
1: 0; 2: 80; 3: 0

All values here come from patent US6355799B1.
